assay: qHTS assay to identify small molecule antagonists of the retinoid-related orphan receptor gamma (ROR-gamma) signaling pathway - cell viability counter screen (AID 1159520); conditions: Tet-on RORgamma CHO cells viability, ATP luminescence, 16 h; series mostly up to 92.4 µM; note: nearly all actives have a fitted effect of over 50% in size
Inconclusive results are not listed. Calls of active or inactive are those of the source. Calls come from the whole dose curve; as a rule, active = well fitted cell-killing curve with a large enough effect in the repeat runs; inconclusive = weak or mixed curves, or effect the other way; inactive = no such curve, though single readings can be large or run the other way.
Parameter call: string, one of Yes for active, No for inactive

// below: answered compounds
>>> label_class("CCCC[P+](CC)(CCCC)CCCC (tested in a mixture with another compound)")
"No"
>>> label_class("C[C@H]1[C@@H]2Cc3ccc(O)cc3[C@@]1(C)CCN2C")
"No"
>>> label_class("CCCC(C)(COC(N)=O)COC(=O)NC(C)C (stereo not drawn)")
"No"

Could you check what this test reported for O=C(O)CCCOc1ccc(Cl)cc1Cl ?
No

Could you check what this test reported for CCC(=O)O[C@@H]1C=C2CCC3C(CCC4(C)C3CC[C@@H]4OC(=O)CC)C2CC1 (stereo partly drawn) ?
No

Could you check what this test reported for CC(C)(C)OOC(C)(C)CCC(C)(C)OOC(C)(C)C ?
No

Could you check what this test reported for CC(C)CCON=O ?
No

Could you check what this test reported for CC(Oc1cccc(Cl)c1)C(=O)O (stereo not drawn) ?
No

Could you check what this test reported for OCC1CO1 (stereo not drawn) ?
No

Could you check what this test reported for CCNC(=O)NC(=O)/C(C#N)=N/OC ?
No

Could you check what this test reported for C[C@H](N)[C@H](O)c1ccc(O)c(O)c1 ?
No

Could you check what this test reported for FC(Cl)(Cl)C(F)(Cl)Cl ?
No

Could you check what this test reported for CCC1(CC)C(=O)NC(=O)NC1=O ?
No

Could you check what this test reported for c1ccc2c(c1)sc1ccccc12 ?
No

Could you check what this test reported for CCOC(=O)NC(O)C(Cl)(Cl)Cl (stereo not drawn) ?
No

Could you check what this test reported for O=C(Cc1ccccc1)OCCc1ccccc1 ?
No

Could you check what this test reported for C#CC(O)(C=CCl)CC (stereo not drawn) ?
No

Could you check what this test reported for NP(N)(=O)NC(=O)c1ccc(F)cc1 ?
No

Could you check what this test reported for CCc1ccccc1N ?
No

Could you check what this test reported for O=C(O)C(Cl)(Cl)Br ?
No

Could you check what this test reported for C=CC(=O)NC(C)(C)CC(C)=O ?
No

Could you check what this test reported for Cc1ccc2c(C)cccc2c1 ?
No

Could you check what this test reported for COc1ccccc1N1CCNCC1 ?
No

Could you check what this test reported for CCCBr ?
No

Could you check what this test reported for Clc1ccc(Cl)c(Cl)c1 ?
No

Could you check what this test reported for COC(=O)Cc1ccccc1 ?
No

###

target: Cytochrome P450 3A4 (Homo sapiens) (UniProt P08684); experiment: Cytochrome P450 Family 3 Subfamily A Member 4 (CYP3A4) small molecule antagonists: luciferase reporter qHTS assay (AID 1671201); settings: P450-Glo CYP3A4 enzyme, luciferin luminescence, 1 h; series mostly up to 115 µM; note: nearly all actives have a fitted effect of over 50% in size
Sequence (P08684 whole entry, looked up): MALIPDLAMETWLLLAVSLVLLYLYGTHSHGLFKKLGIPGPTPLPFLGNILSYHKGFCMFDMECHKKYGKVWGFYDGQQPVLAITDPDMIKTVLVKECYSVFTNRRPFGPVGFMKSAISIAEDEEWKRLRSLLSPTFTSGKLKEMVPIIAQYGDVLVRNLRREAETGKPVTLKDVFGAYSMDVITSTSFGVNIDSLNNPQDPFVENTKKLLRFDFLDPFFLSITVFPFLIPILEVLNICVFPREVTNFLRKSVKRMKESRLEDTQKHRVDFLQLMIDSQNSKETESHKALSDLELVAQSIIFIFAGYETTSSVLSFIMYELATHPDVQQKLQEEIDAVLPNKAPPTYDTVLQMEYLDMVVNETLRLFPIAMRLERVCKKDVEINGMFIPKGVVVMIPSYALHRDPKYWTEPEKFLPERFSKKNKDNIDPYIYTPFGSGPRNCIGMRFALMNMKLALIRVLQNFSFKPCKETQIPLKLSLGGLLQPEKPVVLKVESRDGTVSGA
Inconclusive results are not listed. Activity calls are given as the source filed them. Calls follow the shape of the dose curve; as a rule, active = well fitted inhibition curve with a large enough effect in the repeat runs; inconclusive = weak or mixed curves; inactive = no such curve, though single readings can be large or run the other way.
Parameter call: string, one of 1 (yes) (active), 0 (no) (inactive)

Could you check what this test reported for CC(C)(C)N(NC(=O)c1ccc(Cl)cc1)C(=O)c1ccccc1 ?
1 (yes)

Could you check what this test reported for C=CCOC(=O)C(C)(C)OC(=O)c1cc(-n2c(=O)cc(C(F)(F)F)n(C)c2=O)ccc1Cl ?
1 (yes)

Could you check what this test reported for C=CCc1ccccc1O ?
0 (no)

Could you check what this test reported for CCOC(=O)NC(O)C(Cl)(Cl)Cl (stereo unspecified) ?
0 (no)

Could you check what this test reported for CCOC(=O)c1cn2nc(OP(=S)(OCC)OCC)cc2nc1C ?
1 (yes)

Could you check what this test reported for CCOP(=S)(S)OCC ?
0 (no)

Could you check what this test reported for Cc1nc(N(C)C)nc(OC(=O)N(C)C)c1C ?
0 (no)

Could you check what this test reported for C[C@H]1O[C@H](OC2[C@@H](O)[C@@H](O)C(O)[C@H](O)[C@H]2O)[C@@H](N)C[C@@H]1N=C(N)C(=O)O (stereo partly specified) ?
0 (no)

Could you check what this test reported for CCOP(=S)(OCC)SCSc1cc(Cl)ccc1Cl ?
0 (no)

Could you check what this test reported for CC[N+]1(CCOC(=O)C(O)(c2ccccc2)c2ccccc2)CCCCC1 ?
0 (no)

Could you check what this test reported for CC1(C)[C@H](C(=O)O[C@H](C#N)c2cccc(Oc3ccccc3)c2)[C@@H]1C=C(Br)Br ?
0 (no)

###

test: qHTS assay to identify small molecule antagonists of the retinoid-related orphan receptor gamma (ROR-gamma) signaling pathway - cell viability counter screen (AID 1159520); settings: Tet-on RORgamma CHO cells viability, ATP luminescence, 16 h; series mostly up to 92.4 µM; note: nearly all actives have a fitted effect of over 50% in size
Records with an inconclusive call do not appear. Active and inactive are the calls of the source. The call rests on the fitted dose curve; in most records, active means well fitted cell-killing curve with a large enough effect in the repeat runs; inconclusive means weak or mixed curves, or effect the other way; inactive means no such curve, though single readings can be large or run the other way.
Parameter call: string, one of active, inactive

// below: answered molecules
>>> label_class("CC(C)(C)CC(C)(C)c1ccc(O)cc1")
"active"
>>> label_class("CCOc1cccc(C2(N3CCN(c4ccccc4)CC3)CCC(C)CC2)c1 (stereo unspecified)")
"inactive"
>>> label_class("O=S(=O)(c1ccccc1)c1ccccc1")
"inactive"
>>> label_class("COc1cc(CC#N)cc(OC)c1OC")
"inactive"

Could you check what this test reported for Nc1ccccc1C(=O)OCC(O)CO (stereo unspecified) ?
inactive

Could you check what this test reported for COC1=CC(=O)O[C@@H](/C=C/c2ccc3c(c2)OCO3)C1 ?
inactive

Could you check what this test reported for FC(F)OC(F)(F)C(F)Cl (stereo unspecified) ?
inactive

###

experiment: qHTS assay for small molecule activators of the heat shock response signaling pathway (AID 743210); conditions: HeLa HSE-bla reporter, beta-lactamase ratio, 5 h; series mostly up to 62.6 µM;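 note: HeLa cells with beta-lactamase reporter driven by heat shock elements; % is set by controls: 0 for no effect and ±100 for the full control effect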
Inconclusive results are not listed. Active and inactive are the calls of the source. Calls follow the shape of the dose curve; as a rule, active = well fitted activation curve with a large enough effect in the signal ratio in the repeat runs, with a control signal flat (not every such curve was filed as active); inconclusive = weak or mixed curves; inactive = flat fitted curve, though single readings scatter; the % refers to the signal ratio.
assay.metric: outcome

>>> reported_value("CCNC(=O)NC(=O)/C(C#N)=N/OC")
"inactive"
>>> reported_value("CN[C@@H](C)[C@H](O)c1ccccc1")
"inactive"
>>> reported_value("CCN(C(C)=O)c1cccc(-c2ccnc3c(C#N)cnn23)c1")
"inactive"
>>> reported_value("N#CC(C#N)=Cc1ccc(O)c(O)c1")
"inactive"
>>> reported_value("C=CCc1ccc(OC(=O)Cc2ccccc2)c(OC)c1")
"inactive"
>>> reported_value("CC(C)C1(C)N=C(c2ncccc2C(=O)O)NC1=O (stereo unspecified)")
"inactive"
>>> reported_value("O=C(CCl)CCl")
"inactive"
>>> reported_value("CCOP(=S)(S)OCC")
"inactive"

Would you mind listing outcome for each of the following molecules?
1. C1CCNCC1
2. COC(=O)Cc1ccccc1
3. COc1ccc(C(O)(c2cncnc2)C2CC2)cc1 (stereo unspecified)
4. FC(Cl)(Cl)C(F)(Cl)Cl
5. NP(N)(=O)NC(=O)c1ccc(F)cc1
6. CCc1ccccc1N

inactive
inactive
inactive
inactive
inactive
inactive

Would you mind listing outcome for each of the following molecules?
1. C[C@@H]1C[C@@H]([C@H](O)CC2CC(=O)NC(=O)C2)C(=O)[C@@H](C)C1
2. CCOP(=S)(OCC)Oc1ccc(S(C)=O)cc1 (stereo unspecified)
3. C=CCN1C[C@H](C)N([C@H](c2ccc(C(=O)N(CC)CC)cc2)c2cccc(OC)c2)C[C@H]1C
4. CC(C)OC(=O)Cc1ccccc1
5. CN1C(=O)CN=C(c2ccccc2)c2cc([N+](=O)[O-])ccc21

1: inactive; 2: inactive; 3: inactive; 4: inactive; 5: inactive

Would you mind listing outcome for each of the following molecules?
1. OCCCl
2. C[N+]1(CCC(C(N)=O)(c2ccccc2)c2ccccc2)CCCCC1
3. CCCCC(CC)CO[N+](=O)[O-] (stereo unspecified)

1. inactive
2. inactive
3. inactive

Would you mind listing outcome for each of the following molecules?
1. FC(F)OC(F)(F)C(F)Cl (stereo unspecified)
2. CCC1(CC)C(=O)NC(=O)NC1=O
3. C=CC(=O)OCC
4. CCCC1CCCCN1 (stereo unspecified)
5. CCSCc1ccccc1OC(=O)NC
6. CON(C)C(=O)Nc1ccc(Cl)cc1

inactive
inactive
inactive
inactive
inactive
inactive

Would you mind listing outcome for each of the following molecules?
1. Nc1ccccc1C(=O)OCCc1ccccc1
2. OCCSSCCO
3. NC(=O)CF

inactive
inactive
inactive

###

experiment: qHTS assay to identify small molecule agonists of H2AX (AID 1224845); details: CHO-K1 phospho-H2AX Ser139 HTRF, 3 h; series mostly up to 154 µM; note: % is set by controls: 0 for no effect and ±100 for the full control effect
Inconclusive results are not listed. Activity calls are given as the source filed them. Calls come from the whole dose curve; as a rule, active = well fitted activation curve with a large enough effect in the signal ratio in the repeat runs (not every such curve was filed as active); inconclusive = weak or mixed curves; inactive = flat fitted curve, though single readings scatter; the % refers to the signal ratio.
assay.metric: outcome

Example entries and their recorded answers appear below.
>>> reported_value("CC(Cl)C(=O)O (stereo not drawn)")
"inactive"
>>> reported_value("CCCCCCCCn1sccc1=O")
"inactive"
>>> reported_value("OCCSSCCO")
"inactive"
>>> reported_value("CCC(C)(C)O")
"inactive"
>>> reported_value("C=C(Cl)Cl")
"inactive"
>>> reported_value("C[C@H]1[C@@H]2Cc3ccc(O)cc3[C@@]1(C)CCN2C")
"inactive"
>>> reported_value("CC(C)c1ccc(OP(=O)(Oc2ccc(C(C)C)cc2)Oc2ccc(C(C)C)cc2)cc1")
"inactive"

Supply outcome value. Item: Clc1ccc(Cl)c(Cl)c1
inactive
